- Test: Cytotoxicity against rat H9c2 cells assessed as cell viability at 200 uM after 48 hrs by MTT assay
- Assay type: cell-based
- Measurement context: H9c2 cells, read-out: Activity
Readout kind: viability at 48 h, 200 µM (%)
Unit % implied. Number only.

Prompt: State the recorded viability at 48 h, 200 µM for this entry: CC1(c2ccccn2)ON=C(c2ccc3c(c2)OCO3)O1 (stereo unspecified)
Response: 88

====

- Test: in vitro
- Measurement context: rat, H9c2 cells
- Description: Cytotoxicity against rat H9c2 cells assessed as cell viability at 3.13 uM after 48 hrs by MTT assay
Readout kind: viability at 48 h, 3.13 µM (%)
Quick note: give the figure in %, leave out the unit.

Prompt: For the molecule Cc1ncc([N+](=O)[O-])n1CCO [METRONIDAZOLE] , what viability at 48 h, 3.13 µM is on record?
Response: 100
